system: Caco-2; assay: cell viability relative to DMSO; higher = less toxic; conditions: 72 h; 1 nM
Structures can show the parent of a compound that is named as a salt.
Assay Readout: cell viability

query: Query (compound): Nc1nc2cc(-c3ccc4ncc(C(=O)N5CCOCC5)n4c3)ccc2o1 ; field requested: cell viability
result: 107%

query: Query (compound): CC[C@@H](c1cccc(O)c1)[C@@H](C)CN(C)C [Tapentadol (hydrochloride)] ; field requested: cell viability
result: 93.5%

query: Query (compound): COc1ccc2cc(-c3cc(-c4cc(Cl)cc(Cl)c4)nn3[C@@H](C)c3ccc(C(=O)NCCC(=O)O)cc3)ccc2c1 ; field requested: cell viability
result: 87.9%

query: Query (compound): CC(=O)OCC1=C(C(=O)O)N2C(=O)[C@@H](NC(=O)CS/C(=N/C(C)C)NC(C)C)[C@H]2SC1 ; field requested: cell viability
result: 97.9%

query: Query (compound): CC(C)(C)c1cc(O)c(C(C)(C)C)cc1O ; field requested: cell viability
result: 101%

query: Query (compound): NCC[C@H](O)C(=O)N[C@@H]1C[C@H](N)[C@@H](O[C@H]2O[C@H](CN)[C@@H](O)[C@H](O)[C@H]2O)[C@H](O)[C@H]1O[C@H]1O[C@H](CO)[C@@H](O)[C@H](N)[C@H]1O ; field requested: cell viability
result: 95.7%

query: Query (compound): C/C(=N\NC(=S)N1CCC1)c1ccccn1 ; field requested: cell viability
result: 91.8%

query: Query (compound): C[C@@H](N[C@H]1CCCC[C@@H]1NC(=O)c1ccc(Cl)cc1)c1cccc2ccccc12 ; field requested: cell viability
result: 104%
